B1: LINE1-mini (parent)
chain: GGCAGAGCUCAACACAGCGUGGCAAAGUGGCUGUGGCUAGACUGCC

Variants of: B1
EXPERIMENT DESCRIPTION: self-cleavage, relative activity (ratio to wild type); higher = more cleavage; in vitro, sequencing; the parent is a self-cleaving ribozyme
self-cleavage reference
MEASUREMENT KIND: self-cleavage

BIOPOLYMER SEQUENCE: GGCAGAGCUCAACAAAGCGUGGCAACGUGGCUGUGGCUAGACUGCC [C15A A26C]
MEASUREMENT KIND: self-cleavage
TEST VALUE: 0.08
//
BIOPOLYMER SEQUENCE: GGCAGAGCUCAACACAGCGUGGCAAAGUGGCUGUGGCAAGUCUGCC [U38A A41U]
MEASUREMENT KIND: self-cleavage
TEST VALUE: 0.1
//
BIOPOLYMER SEQUENCE: GGCAGAGCUCAACGCACCGUGGCAAAGUGGCUGUGGCUAGACUGCC [A14G G17C]
MEASUREMENT KIND: self-cleavage
TEST VALUE: 0.09
//
BIOPOLYMER SEQUENCE: GGCAGAGCUCAACACAGCGUGGCAAGGUGGUUGUGGCUAGACUGCC [A26G C31U]
MEASUREMENT KIND: self-cleavage
TEST VALUE: 0.15
//
BIOPOLYMER SEQUENCE: GGCAGAGCUCAACACAGCGUGGCCAAGUGGCUGUGGCUAGACUUCC [A24C G44U]
MEASUREMENT KIND: self-cleavage
TEST VALUE: 0.13
//
BIOPOLYMER SEQUENCE: GGCAGAGCUCAACACAGCGUGGAACAGUGGCUGUGGCUAGACUGCC [C23A A25C]
MEASUREMENT KIND: self-cleavage
TEST VALUE: 0.61
//
BIOPOLYMER SEQUENCE: GGCAGAGCUCAACACAGCGUGGCAAAGUGGCUGUGGCUUGACUGCG [A39U C46G]
MEASUREMENT KIND: self-cleavage
TEST VALUE: 0.5
//
BIOPOLYMER SEQUENCE: GGCAGAGCUCAACACAGCGUGGCGAAGUGGCUGUGGCAAGACUGCC [A24G U38A]
MEASUREMENT KIND: self-cleavage
TEST VALUE: 0.76
//
BIOPOLYMER SEQUENCE: GGCAGAGAUCAGCACAGCGUGGCAAAGUGGCUGUGGCUAGACUGCC [C8A A12G]
MEASUREMENT KIND: self-cleavage
TEST VALUE: 0.11
//
BIOPOLYMER SEQUENCE: GGCAUAGCUCAACACAGCGUGGCAAAGUGGCUGUGGCUAGACUACC [G5U G44A]
MEASUREMENT KIND: self-cleavage
TEST VALUE: 0.08
//
BIOPOLYMER SEQUENCE: GGCAGAGCUCAACACAGCGUGGCAAAGUGGGUCUGGCUAGACUGCC [C31G G33C]
MEASUREMENT KIND: self-cleavage
TEST VALUE: 0.03
//
BIOPOLYMER SEQUENCE: GGCAAAGCUCAACACAGCGUGGCACAGUGGCUGUGGCUAGACUGCC [G5A A25C]
MEASUREMENT KIND: self-cleavage
TEST VALUE: 0.07
//
BIOPOLYMER SEQUENCE: GGCAGAGCUAACCACAGCGUGGCAAAGUGGCUGUGGCUAGACUGCC [C10A A12C]
MEASUREMENT KIND: self-cleavage
TEST VALUE: 0.04
//
BIOPOLYMER SEQUENCE: GGCAGAGCUCAACACAGCGUGGCAAAGUGGCGUUGGCUAGACUGCC [U32G G33U]
MEASUREMENT KIND: self-cleavage
TEST VALUE: 0.07
//
BIOPOLYMER SEQUENCE: GGCAGAGCUCACCACAGCGUGGCAAAGUGGCUGUGGCUAGGCUGCC [A12C A41G]
MEASUREMENT KIND: self-cleavage
TEST VALUE: 0.03
//
BIOPOLYMER SEQUENCE: GGCAGAGAUCAACACAGCGUGGCAAAGUGGCCGUGGCUAGACUGCC [C8A U32C]
MEASUREMENT KIND: self-cleavage
TEST VALUE: 0.23
//
BIOPOLYMER SEQUENCE: GGUAGAGCUCAACACAGCGUGGCAAAGUGGCUGUGCCUAGACUGCC [C3U G36C]
MEASUREMENT KIND: self-cleavage
TEST VALUE: 0.19
//
BIOPOLYMER SEQUENCE: GGCAGAGCUCAACACAGUGUGGAAAAGUGGCUGUGGCUAGACUGCC [C18U C23A]
MEASUREMENT KIND: self-cleavage
TEST VALUE: 1.27
//
BIOPOLYMER SEQUENCE: GGCAGAGCUCAACACAGGGUGGCAAGGUGGCUGUGGCUAGACUGCC [C18G A26G]
MEASUREMENT KIND: self-cleavage
TEST VALUE: 0.22
//
BIOPOLYMER SEQUENCE: GGCCGAGCUCAACACAGCGUGGCAAAGUGGCUGUAGCUAGACUGCC [A4C G35A]
MEASUREMENT KIND: self-cleavage
TEST VALUE: 0.17
//
BIOPOLYMER SEQUENCE: GGCAGAGCUCAACACAGCGUGGCAAAAUCGCUGUGGCUAGACUGCC [G27A G29C]
MEASUREMENT KIND: self-cleavage
TEST VALUE: 0.36
//
BIOPOLYMER SEQUENCE: GGCAGAGCUCAACACAGCGUGGCAAUGUGGCUGUGGCUACACUGCC [A26U G40C]
MEASUREMENT KIND: self-cleavage
TEST VALUE: 0.06
//
BIOPOLYMER SEQUENCE: GACAGAGCUCAACACACCGUGGCAAAGUGGCUGUGGCUAGACUGCC [G2A G17C]
MEASUREMENT KIND: self-cleavage
TEST VALUE: 0.32
//
BIOPOLYMER SEQUENCE: GGCAGAGCUCACCAAAGCGUGGCAAAGUGGCUGUGGCUAGACUGCC [A12C C15A]
MEASUREMENT KIND: self-cleavage
TEST VALUE: 0.03
//
BIOPOLYMER SEQUENCE: GGCAGAGCUCAGCACAGCGUGGCAAUGUGGCUGUGGCUAGACUGCC [A12G A26U]
MEASUREMENT KIND: self-cleavage
TEST VALUE: 0.03
//
BIOPOLYMER SEQUENCE: GGCAGAGCUCAACACAGCGUGGCAAAAUGGCUGUGGCUAUACUGCC [G27A G40U]
MEASUREMENT KIND: self-cleavage
TEST VALUE: 0.14
//
BIOPOLYMER SEQUENCE: GGCAGAGCUCAACACAGCGUGACAAAAUGGCUGUGGCUAGACUGCC [G22A G27A]
MEASUREMENT KIND: self-cleavage
TEST VALUE: 0.51
//
BIOPOLYMER SEQUENCE: GGCAGUGCUCAACACAGCGUGGCAAAGUGGCUGGGGCUAGACUGCC [A6U U34G]
MEASUREMENT KIND: self-cleavage
TEST VALUE: 0.28
